All figures here come from the supplement of paper PMC10567573.

B1: ATL3 (parent)
chain: EKALASILLQDHIRDLDVVVVSVA

# Variants of: B1
# assay_remarks: protein stability index of a GFP-peptide fusion (GPS, HEK-293T) (PSI 1-6); higher = more stable;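 further: lentivirally expressed fusions sorted by FACS into six bins by GFP to DsRed ratio, PSI derived from sequencing read proportions per bin multiplied by bin number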
# measurement_conditions: c terminus: a fixed tail appended
Measured protein stability index values are reported for all entries that follow.
quantity_kind: protein stability index

[[record]]
mutant_name = "L8E"
quantity_kind = "protein stability index"
result = 1.98

[[record]]
mutant_name = "V18I"
quantity_kind = "protein stability index"
result = 2.02

[[record]]
mutant_name = "V18N"
quantity_kind = "protein stability index"
result = 2

